Target desc: UniProt P54578
Sequence (P54578 whole entry, looked up): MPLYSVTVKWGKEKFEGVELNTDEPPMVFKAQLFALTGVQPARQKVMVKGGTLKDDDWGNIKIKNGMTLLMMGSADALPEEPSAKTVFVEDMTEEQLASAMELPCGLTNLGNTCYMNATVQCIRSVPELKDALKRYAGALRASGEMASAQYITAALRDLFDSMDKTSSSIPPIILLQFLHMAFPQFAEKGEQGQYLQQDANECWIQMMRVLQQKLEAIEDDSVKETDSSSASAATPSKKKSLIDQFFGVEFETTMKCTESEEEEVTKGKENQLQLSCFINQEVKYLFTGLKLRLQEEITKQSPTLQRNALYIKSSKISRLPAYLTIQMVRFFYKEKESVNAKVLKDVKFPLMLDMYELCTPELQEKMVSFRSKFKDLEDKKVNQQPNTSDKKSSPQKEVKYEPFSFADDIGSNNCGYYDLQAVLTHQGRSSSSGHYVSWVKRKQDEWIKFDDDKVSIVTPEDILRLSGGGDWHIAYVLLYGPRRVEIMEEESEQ
Method summary: Usp14 inhibition assay (Example 57B, B-series compounds)
Format: biochemical
Condition label: IC50 class; average value from a minimum of two experimental determinations
pIC50: −log10 of the molar value.
Entries and their pIC50 values follow.

Check out these entries, answers already filled in.
Cc1c(C(=O)CN2C3CCC2[C@@H](O)C3)cc(CCC2COC2)n1-c1ccc(C#N)cc1 (mixture of isomers) [Example 43B]: > 7.30
Cc1cc(C(=O)CN2C3CCC2[C@@H](O)C3)c(C)n1-c1cc(F)c(Cl)c(F)c1 (mixture of isomers) [Example 118B]: < 6.30
Cc1cc(C(=O)CN2C3CCC2[C@@H]2COC[C@H]32)c(C)n1-c1ccc(C#N)cc1 (racemic) [Example 106B]: 6.30 to 7.30
Cc1c(C(=O)CN2C3CCC2[C@@H](O)C3)cc(C(F)(F)F)n1-c1ccc(C#N)cc1 (mixture of isomers) [Example 109B]: 6.30 to 7.30
Cc1c(C(=O)CN2C3CCC2CC3)cc(C#N)n1-c1ccc(C#N)cc1 [Example 137B]: > 7.30
Cc1c(C(=O)CN2C3CCC2[C@@H](O)C3)cc(C[C@H]2C[C@@H](C#N)C2)n1-c1ccc(C#N)cc1 (mixture of isomers) [Example 4B]: > 7.30

Let us examine a further case.
Query: Tell us which pIC50 value is on record for Cc1c(C(=O)CN2[C@@H]3CC[C@H]2[C@@H](O)C3)cc(CCCC2COC2)n1-c1ccc(C#N)cc1 (racemic) [Example 22B]
Result: > 7.30
